Biological target: full length human PDGFR-beta on HEK293 cells (human, UniProt P09619 33-1106)
Sequence (P09619 33-1106 limits assumed): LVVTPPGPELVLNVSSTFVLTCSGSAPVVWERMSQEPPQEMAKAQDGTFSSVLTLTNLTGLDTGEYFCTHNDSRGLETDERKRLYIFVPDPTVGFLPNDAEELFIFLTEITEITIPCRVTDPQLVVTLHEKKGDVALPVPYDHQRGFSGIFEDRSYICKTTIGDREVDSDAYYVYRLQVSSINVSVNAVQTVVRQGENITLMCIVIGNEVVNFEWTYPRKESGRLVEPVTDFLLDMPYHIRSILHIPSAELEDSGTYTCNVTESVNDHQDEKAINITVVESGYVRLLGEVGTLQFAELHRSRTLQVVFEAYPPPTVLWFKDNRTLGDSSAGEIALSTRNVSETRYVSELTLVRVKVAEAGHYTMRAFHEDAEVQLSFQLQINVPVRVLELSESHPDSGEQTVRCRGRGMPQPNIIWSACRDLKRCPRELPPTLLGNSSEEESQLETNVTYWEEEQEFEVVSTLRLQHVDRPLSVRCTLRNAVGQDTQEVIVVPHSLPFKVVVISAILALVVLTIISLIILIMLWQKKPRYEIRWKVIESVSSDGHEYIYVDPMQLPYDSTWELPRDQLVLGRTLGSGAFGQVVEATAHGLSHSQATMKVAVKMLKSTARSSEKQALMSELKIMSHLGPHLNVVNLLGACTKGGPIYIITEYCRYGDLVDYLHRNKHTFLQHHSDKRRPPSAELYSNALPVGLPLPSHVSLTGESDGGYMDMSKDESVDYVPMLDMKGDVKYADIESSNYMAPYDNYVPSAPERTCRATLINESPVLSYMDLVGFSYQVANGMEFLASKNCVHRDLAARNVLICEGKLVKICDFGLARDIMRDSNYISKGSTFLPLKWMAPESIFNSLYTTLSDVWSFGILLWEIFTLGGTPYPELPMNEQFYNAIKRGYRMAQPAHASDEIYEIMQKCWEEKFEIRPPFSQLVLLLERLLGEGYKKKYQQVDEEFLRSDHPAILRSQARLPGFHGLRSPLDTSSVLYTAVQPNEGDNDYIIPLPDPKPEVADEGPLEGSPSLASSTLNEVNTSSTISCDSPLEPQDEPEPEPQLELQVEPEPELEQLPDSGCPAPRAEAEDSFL
Assay: cell-based or functional assay
# IC50, blocking PDGF-BB (250 pM) activation, SRE-luciferase per entry
observed.property: IC50, blocking PDGF-BB (250 pM) activation, SRE-luciferase

- H1M3361N (antibody, mouse IgG1, V domains shown, mouse IgG1 Fc (H1M prefix)) VH: EVQLVESGGGLVQPGGSLRLSCAASGFTFSSYWMTWVRQAPGKGLEWVANIRQDGSDKYYVDSVKGRFTISRDNAKNSLFLQMNSLRAEDTAVYYCARTNGGTYGYNHYYYGMDVWGQGTTVTVSS VL: DIQMTQSPSSLSASVGDRVTITCRASQGIRNDLGWYQLKPGKAPKRLIFAASSLQSGVPSRFSGSGSGTEFTLTISSLQPEDFATYYCLQHNSYPWTFGQGTKVEIK: 6.8e-09
- H4H3106S (antibody, human IgG4, V domains shown, human IgG4 Fc (H4H prefix)) VH: QVQLVESGGGLVQPGGSLRLSCAASGFTFSSYWMSWVRQVPGKGLEWVANMNQDGTEKYYVDSVKGRLTISRENVKNSLYLQMNGLRAEDTAVYYCARDLVPPRQGDYYYYFGMDVWGHGTMVTVSS VL: AIQMTQSPSTLSASVGDIVTITCRASQSISDWLAWYQQKPGKAPKLLIFKASSLESGVPSRFSGSGSGTDFTLTISSLQPDDFATYYCQQYNSYSRTFGQGTKVDIK: 7.4e-10
- H4H3374N (antibody, human IgG4, V domains shown, human IgG4 Fc (H4H prefix)) VH: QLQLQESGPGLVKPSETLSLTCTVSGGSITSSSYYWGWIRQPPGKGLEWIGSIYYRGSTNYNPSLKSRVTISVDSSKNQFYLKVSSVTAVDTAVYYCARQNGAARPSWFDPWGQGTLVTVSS VL: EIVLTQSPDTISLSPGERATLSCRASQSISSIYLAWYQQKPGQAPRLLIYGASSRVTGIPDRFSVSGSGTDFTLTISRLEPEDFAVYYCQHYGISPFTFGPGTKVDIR: 1.3e-10
